- target-or-system: Human CB1R (Cannabinoid receptor 1) (Homo sapiens (Human), UniProt P21554)
- Sequence (P21554 whole entry): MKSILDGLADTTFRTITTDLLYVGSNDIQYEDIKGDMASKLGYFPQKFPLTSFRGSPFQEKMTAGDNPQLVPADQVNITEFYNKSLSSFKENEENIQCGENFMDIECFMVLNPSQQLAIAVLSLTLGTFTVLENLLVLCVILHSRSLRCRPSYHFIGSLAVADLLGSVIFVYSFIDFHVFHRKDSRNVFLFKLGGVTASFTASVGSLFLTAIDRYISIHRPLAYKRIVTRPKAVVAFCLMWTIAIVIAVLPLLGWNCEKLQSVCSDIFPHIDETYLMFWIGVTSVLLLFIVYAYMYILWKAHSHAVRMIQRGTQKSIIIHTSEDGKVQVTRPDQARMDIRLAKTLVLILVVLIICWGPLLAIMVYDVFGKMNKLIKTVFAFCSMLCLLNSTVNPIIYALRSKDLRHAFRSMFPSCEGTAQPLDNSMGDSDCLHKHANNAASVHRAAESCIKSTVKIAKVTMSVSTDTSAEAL
- procedure-details: CB-1 in vitro cAMP assay (HTRF), inverse agonism
- Type: cell-based
- condition-info: mean where tested more than once
- From the text: CB1 and CB2 receptors are Gi-coupled GPCR. Activation of CB1 and CB2 receptors results in a decrease in cAMP production. An inverse agonist of the CB1 or CB2 receptor results in the opposite effect, an increase of cAMP production. The principle of this assay is based on HTRF® technology (Homogeneous Time-Resolved Fluorescence). […] The tracer binding is quantified by a Mab anti-cAMP labeled with Eu3+TBP-NHS Cryptate (supplied as part of the assay kit). […]
experimental-endpoint: EC50

Solved entries:
- compound: "O=c1cc(NC2CCN(S(=O)(=O)C(F)(F)F)CC2)c2cc(C(c3ccc(Cl)cc3)c3ccc(Cl)cc3)cc(NC3CCN(S(=O)(=O)C(F)(F)F)CC3)c2[nH]1 [Compound 99]"
  target-or-system: "Human CB1R (Cannabinoid receptor 1) (Homo sapiens (Human), UniProt P21554)"
  EC50: "> 10 µM"
- compound: "CC(=O)N1CCN(c2cc(OS(=O)(=O)C(F)(F)F)nc3ccc(C(c4ccc(Cl)cc4)c4nccs4)cc23)CC1 (stereo not drawn) [Compound 522]"
  target-or-system: "Human CB1R (Cannabinoid receptor 1) (Homo sapiens (Human), UniProt P21554)"
  EC50: "> 10 µM"

The record that follows has no EC50 shown yet.
For this compound ( O=C(O)CCN1CCC(Nc2cc(=O)[nH]c3ccc(C(c4ccc(Cl)cc4)c4ccc(Cl)cc4)cc23)CC1 [Compound 115] ), measured EC50 is > 10 µM
